tested on: Plasmodium falciparum; assay: GSK_TCMDC: Inhibition of Plasmodium falciparum 3D7 in whole red blood cells, using parasite LDH activity as an index of growth. Test compounds present at 2uM; format: functional
// Inhibition lookup, one value per entry
quantityName: Inhibition (%)

>>> valuemeasured("COc1cccc(OC)c1CN1CCC(N(C)CCCCCCCCN2CCC(OC(=O)Nc3ccccc3-c3ccccc3)CC2)CC1")
99
>>> valuemeasured("O=C(CCCCCNC(=O)c1ccc(O)c(-c2ccc(Cl)c(Cl)c2)c1)NCc1cccc2ccccc12")
99
>>> valuemeasured("CN(CCc1ccccc1)c1ncc(-c2ccccc2CNCc2ccccc2O)cn1")
99
>>> valuemeasured("CC1(C)N=C(N)N=C(NOCc2ccc(Cl)c(Cl)c2)N1")
96
>>> valuemeasured("CCCC(C)N(Cc1ccc(C(C)(C)C)cc1)C(=O)c1cccc(OC)c1 (stereo not given)")
100
>>> valuemeasured("COc1ccc(C2CCN(CCCNC(=O)c3ccc(NC(=O)c4ccc(Cl)cc4)cc3)CC2)c(OC)c1")
99
>>> valuemeasured("CN1CCc2ccc(NC(=O)Nc3ccc(Cl)c(Cl)c3)cc2C1")
80
>>> valuemeasured("Cc1ccc(Nc2nc(C)cc(NC3CCN(C)CC3)n2)cc1")
100
>>> valuemeasured("CN(CC(=O)Nc1ccc(F)cc1)C(=O)c1ccc(-c2ccc(F)cc2)o1")
89
>>> valuemeasured("CN1CCCN(Cc2ccc(-c3ccc(NC(=O)c4ccc(Cl)cc4)cc3)cc2)CC1.O=C(O)C(F)(F)F")
96
